- Tested on: RPMI-8226
- measurement-description: NCI tumour cell line growth inhibition, 48 h
Calls of active or inactive are those of the source. Rule as the data show it: active = GI50 up to about 1.1 µM and inactive = higher.
measure-name: GI50

Problem: Entry O=c1[nH][nH]c(=O)n1Cc1cccc(Cn2c(=O)[nH][nH]c2=O)c1 : reported GI50 = ?
Result: > 100 µM (inactive)

Problem: Requested read-out: GI50. Entry: NS(=O)(=O)c1ccc(NC(=O)N/N=C/c2ccccc2O)cc1
Result: > 100 µM (inactive)

Problem: Value lookup for GI50; key = CC1(C)CC2C(/C1=N/O)C1(C)CCCC2(C)C1O (stereo unspecified)
Result: > 100 µM (inactive)

Problem: Sample O=C1C(c2cnc3ccccc3n2)=C(O)c2ccccc21 — what was its GI50?
Result: > 61.1 µM (inactive)

Problem: Return reported GI50; argument: COc1ccc(CNC(=O)[C@H](Cc2ccc(O)cn2)NC(C)=O)cc1OC
Result: > 100 µM (inactive)

Problem: Give its GI50 value. Item: Clc1ccccc1-c1nnc2c(-c3ccccc3)nc3ccccc3n12
Result: > 100 µM (inactive)

Problem: What value of measured GI50 is listed for CCO/C=N/C1=C(C#N)SC2=N/C(=C\c3ccccc3)C(=O)N21 ?
Result: > 58.1 µM (inactive)

Problem: Entry CCOC(=O)C1Oc2ccc([N+](=O)[O-])c3c2C1(O)CCC3 (stereo unspecified) : reported GI50 = ?
Result: > 100 µM (inactive)

Problem: Please report the recorded GI50 for C=C(C(=O)OC)c1cc2ccccc2n1S(=O)(=O)c1ccccc1 .
Result: 1.28 µM (inactive)

Problem: // returns reported GI50 for input C[C@]12CC[C@H]3[C@@H](CC=C4C[C@@H](O)CC[C@@]43C)[C@@H]1CC[C@@H]2N(CCO)CCO
Result: > 100 µM (inactive)

Problem: Quick one: GI50 for NNC(=O)C(O)C(O)C(O)CO (stereo unspecified) ?
Result: > 100 µM (inactive)

Problem: Name the recorded GI50 for N=C(N)NCCCC(Nc1c2ccccc2nc2ccccc12)C(=O)O (stereo unspecified) .
Result: 33.1 µM (inactive)

Problem: I have this molecule here, Cc1cc(Cl)ccc1NC(=O)CCCC(=O)C1C/C(=N/O)CC/C1=N\O (stereo unspecified) , and I need its recorded GI50.
Result: > 100 µM (inactive)

Problem: Sample O=S(=O)(N/N=C/c1cccc(Cl)c1Cl)c1ccccc1 — what was its GI50?
Result: 66.2 µM (inactive)

Problem: Reported GI50 for CCOC(=O)CCC(C(=O)OCC)n1nnc2cc(Nc3c(C)[n+]([O-])c4cc(Cl)ccc4[n+]3[O-])ccc21 (stereo unspecified) : what is it?
Result: 37.2 µM (inactive)

Problem: Return reported GI50; argument: COc1ccc(-c2cc(=O)c3c(OC)c(OC)c(OC)cc3o2)cc1
Result: 27 µM (inactive)

Problem: What does the data say about its GI50? Entry: C=C(CN(C)C)C(=O)c1ccc(C(=O)C(=C)CN(C)C)cc1
Result: > 100 µM (inactive)

Problem: What GI50 value was documented for this molecule, CC1=C(C(=O)NCc2ccccc2)C(/C=C/c2ccccc2)C(C(=O)NCc2ccccc2)=C(C)N1 ?
Result: > 100 µM (inactive)

Problem: Returns the measured GI50 for the input molecule. Input: N#C/C(=C\c1cccc(O)c1O)C(N)=O
Result: 18.3 µM (inactive)

Problem: Entry under review: CCCCOC(=O)NC(=O)c1cn(CCCOC(=O)CCCCCCCCC(=O)OCCCn2cc(C(=O)NC(=O)OCCCC)c(=O)[nH]c2=O)c(=O)[nH]c1=O . Reported GI50?
Result: > 100 µM (inactive)

Problem: Please give the measured GI50 for this molecule: C[N+](C)(C)c1nc(N)nc2c1ncn2C1OC(CO)C(O)C1O (stereo unspecified)
Result: > 100 µM (inactive)
